Here, each record is paired with measured inhibition in vivo at 1 mg/kg data.
System: spontaneously hypertensive rats (SHR)
Assay: Effect on reducing blood pressure of spontaneously hypertensive rats (SHR) by multiple oral administrations
Format: in vivo
Settings: Rattus norvegicus; 1.0 mg/kg oral, SHR; read-out: Heart Rate (effect on reducing heart rate)
// return numeric value only (unit: %, not printed)

Record CCOc1nc2cccc(C(=O)OCOC(=O)OCc3no[n+]([O-])c3C)c2n1Cc1ccc(-c2ccccc2-c2noc(=O)[nH]2)cc1 [QR01020] : what is its inhibition in vivo at 1 mg/kg with spontaneously hypertensive rats (SHR)?
25

Observed inhibition in vivo at 1 mg/kg on spontaneously hypertensive rats (SHR) for CCOc1nc2cccc(C(=O)OCOC(=O)C(C)(C)C)c2n1Cc1ccc(-c2ccccc2-c2noc(=O)[nH]2)cc1 [QR01005] , please.
23

Could you share what inhibition in vivo at 1 mg/kg was measured for CCOc1nc2cccc(C(=O)OCc3no[n+]([O-])c3CO[N+](=O)[O-])c2n1Cc1ccc(-c2ccccc2-c2noc(=O)[nH]2)cc1 [QR01034] , tested on spontaneously hypertensive rats (SHR)?
15

Request: inhibition in vivo at 1 mg/kg, test system spontaneously hypertensive rats (SHR), entry CCOc1nc2cccc(C(=O)OC(C)OC(=O)OCc3nc(C)c(C)nc3C)c2n1Cc1ccc(-c2ccccc2-c2noc(=O)[nH]2)cc1 (centres unmarked) [QR01019]
18

Give spontaneously hypertensive rats (SHR) inhibition in vivo at 1 mg/kg for CCOc1nc2cccc(C(=O)OCc3no[n+]([O-])c3C)c2n1Cc1ccc(-c2ccccc2-c2noc(=O)[nH]2)cc1 [QR01023]
14

Give inhibition in vivo at 1 mg/kg (spontaneously hypertensive rats (SHR)) of the following compound: CCOc1nc2cccc(C(=O)OCc3no[n+]([O-])c3C#N)c2n1Cc1ccc(-c2ccccc2-c2noc(=O)[nH]2)cc1 [QR01036]
25

New cases:
Short answer please: inhibition in vivo at 1 mg/kg, spontaneously hypertensive rats (SHR), entry CCOc1nc2cccc(C(=O)OCc3c(-c4ccccc4)no[n+]3[O-])c2n1Cc1ccc(-c2ccccc2-c2noc(=O)[nH]2)cc1 [QR01009]
24

Param readout = inhibition in vivo at 1 mg/kg; param system = spontaneously hypertensive rats (SHR); param query = CCOc1nc2cccc(C(=O)OCc3oc(=O)oc3C)c2n1Cc1ccc(-c2ccccc2-c2noc(=O)[nH]2)cc1 [Azilsartan medoxomil, reference compound] ; response: value
8

###

Test system: renovascular hypertensive rats
Experiment: Effect on reducing blood pressure of renovascular hypertensive rats by single oral administration
Assay type: in vivo, Wistar rats
Details: Rattus norvegicus; 1.0 mg/kg, single oral administration, RHR; read-out: Variations on heart rate
Parameter: change in vivo at 1 mg/kg. Scope: all listed entries.
Answer format: numeric, % implied, no suffix.

// solved cases for change in vivo at 1 mg/kg follow
Fill in: change in vivo at 1 mg/kg of `CCOc1nc2cccc(C(=O)ONC(=N)Nc3ccccc3)c2n1Cc1ccc(-c2ccccc2-c2noc(=O)[nH]2)cc1` is ___
-3

Recorded change in vivo at 1 mg/kg for CCOc1nc2cccc(C(=O)OC3CCc4c3no[n+]4[O-])c2n1Cc1ccc(-c2ccccc2-c2noc(=O)[nH]2)cc1 (stereo not shown) , please?
-23

# query: change in vivo at 1 mg/kg of entry `CCOc1nc2cccc(C(=O)OCc3c(-c4ccccc4)no[n+]3[O-])c2n1Cc1ccc(-c2ccccc2-c2noc(=O)[nH]2)cc1`
-25

Need change in vivo at 1 mg/kg, item `CCOc1nc2cccc(C(=O)OCOC(=O)C(C)(C)C)c2n1Cc1ccc(-c2ccccc2-c2noc(=O)[nH]2)cc1`
-21

More entries:
Sample `CCOc1nc2cccc(C(=O)OCCOC(C)=O)c2n1Cc1ccc(-c2ccccc2-c2noc(=O)[nH]2)cc1` — what was its change in vivo at 1 mg/kg?
-5

// lookup change in vivo at 1 mg/kg for `CCOc1nc2cccc(C(=O)OCc3no[n+]([O-])c3CO[N+](=O)[O-])c2n1Cc1ccc(-c2ccccc2-c2noc(=O)[nH]2)cc1`
-15

I am curious: what change in vivo at 1 mg/kg value has been reported for `CCOc1nc2cccc(C(=O)OCc3no[n+]([O-])c3C#N)c2n1Cc1ccc(-c2ccccc2-c2noc(=O)[nH]2)cc1` ?
-18

Look up change in vivo at 1 mg/kg for this compound: `CCOc1nc2cccc(C(=O)OCOC(=O)OCc3ccno3)c2n1Cc1ccc(-c2ccccc2-c2noc(=O)[nH]2)cc1`
-20

###

Test system: renovascular hypertensive rats
Assay: Effect on reducing blood pressure of renovascular hypertensive rats by single oral administration
Assay type: in vivo, Wistar rats
Details: Rattus norvegicus; 0.5 mg/kg, single oral administration, two-kidney one-clip RHR, measured 1-10 h; read-out: Maximum blood pressure reduction
ENDPOINT: inhibition in vivo at 0.5 mg/kg (%)
Your answer should be a plain number; it is taken to be in %.

Endpoint output: inhibition in vivo at 0.5 mg/kg of CCOc1nc2cccc(C(=O)OCc3c(-c4ccccc4)no[n+]3[O-])c2n1Cc1ccc(-c2ccccc2-c2noc(=O)[nH]2)cc1 [QR01009] . Value?
22

What value of inhibition in vivo at 0.5 mg/kg has been recorded for this entry: CCOc1nc2cccc(C(=O)OCc3no[n+]([O-])c3C)c2n1Cc1ccc(-c2ccccc2-c2noc(=O)[nH]2)cc1 [QR01023]
18

Which inhibition in vivo at 0.5 mg/kg value is on record for CCOc1nc2cccc(C(=O)OCOC(=O)OCc3ccn(C)c3)c2n1Cc1ccc(-c2ccccc2-c2noc(=O)[nH]2)cc1 [QR01032] ?
20

Looking for the measured inhibition in vivo at 0.5 mg/kg of CCOc1nc2cccc(C(=O)OCc3nc(C)c(C)nc3C)c2n1Cc1ccc(-c2ccccc2-c2noc(=O)[nH]2)cc1 [QR01006] , can you help?
14

What measured inhibition in vivo at 0.5 mg/kg goes with CCOc1nc2cccc(C(=O)OCOC(=O)OCc3ccno3)c2n1Cc1ccc(-c2ccccc2-c2noc(=O)[nH]2)cc1 [QR01030] ?
18

More entries:
Item CCOc1nc2cccc(C(=O)OC(OC(=O)OCc3nc(C)c(C)nc3C)C(C)C)c2n1Cc1ccc(-c2ccccc2-c2noc(=O)[nH]2)cc1 (stereo not drawn) [QR01027] has what recorded inhibition in vivo at 0.5 mg/kg?
14

###

Tested on: renovascular hypertensive rats
Assay: Effect on reducing blood pressure of renovascular hypertensive rats by single oral administration
Format: in vivo, Wistar rats
Conditions: Rattus norvegicus; 0.5 mg/kg, single oral administration, two-kidney one-clip RHR, measured 1-10 h; read-out: Maximum blood pressure reduction
Kindly return criterion met if reported inhibition in vivo at 0.5 mg/kg is no lower than 20%; return criterion not met if it is lower.

Item CCOc1nc2cccc(C(=O)OC(OC(=O)OCc3nc(C)c(C)nc3C)C(C)(C)C)c2n1Cc1ccc(-c2ccccc2-c2noc(=O)[nH]2)cc1 (stereo not shown) with inhibition in vivo at 0.5 mg/kg of 20% or above?
criterion not met

Does the compound `CCOc1nc2cccc(C(=O)OCCO[N+](=O)[O-])c2n1Cc1ccc(-c2ccccc2-c2noc(=O)[nH]2)cc1` have recorded inhibition in vivo at 0.5 mg/kg that is 20% or more?
criterion not met

Assess whether reported inhibition in vivo at 0.5 mg/kg for CCOC(=O)C(=O)OC(C)C(=O)COC(=O)c1cccc2nc(OCC)n(Cc3ccc(-c4ccccc4-c4noc(=O)[nH]4)cc3)c12 (stereo not shown) sits at 20% or higher.
criterion not met

Item `CCOc1nc2cccc(C(=O)OCOC(=O)OCc3no[n+]([O-])c3C)c2n1Cc1ccc(-c2ccccc2-c2noc(=O)[nH]2)cc1` with inhibition in vivo at 0.5 mg/kg of 20% or above?
criterion met

Form field: inhibition in vivo at 0.5 mg/kg at least 20%? Entry: `CCOc1nc2cccc(C(=O)Oc3ccc(OCc4c(-c5ccccc5)no[n+]4[O-])cc3)c2n1Cc1ccc(-c2ccccc2-c2noc(=O)[nH]2)cc1`
criterion met

Hi, just wondering whether `CCOc1nc2cccc(C(=O)OCc3no[n+]([O-])c3C#N)c2n1Cc1ccc(-c2ccccc2-c2noc(=O)[nH]2)cc1` shows inhibition in vivo at 0.5 mg/kg of 20% or higher.
criterion not met

Quick check: does `CCOc1nc2cccc(C(=O)OCc3oc(=S)oc3C)c2n1Cc1ccc(-c2ccccc2-c2noc(=O)[nH]2)cc1` have inhibition in vivo at 0.5 mg/kg greater than or equal to 20%?
criterion not met

Threshold query (inhibition in vivo at 0.5 mg/kg >= 20%) on CCOc1nc2cccc(C(=O)OC(C)OC(=O)OC(C)C)c2n1Cc1ccc(-c2ccccc2-c2noc(=O)[nH]2)cc1 (stereo not shown)
criterion not met

Dear colleague, could you confirm whether `CCOc1nc2cccc(C(=O)OCc3no[n+]([O-])c3CO[N+](=O)[O-])c2n1Cc1ccc(-c2ccccc2-c2noc(=O)[nH]2)cc1` has inhibition in vivo at 0.5 mg/kg at or above 20%?
criterion met
